This collection of values is drawn from ChEMBL document CHEMBL1201862.

# System: Malme-3M
# assayText: NCI tumour cell line growth inhibition, 48 h
Active and inactive are the calls of the source. Rule as the data show it: active = GI50 up to about 1.1 µM and inactive = higher.

- compound: "CCOC(=O)Nc1cc(NC(/C=N/NC(C)=O)C(=O)OCC)c(OC)cc1NC(C)=O (stereo not given)"
  GI50: "> 100 µM (inactive)"
- compound: "COc1ccc2c(c1)c1nn(CCN(C)C)c3ccc4c(=O)n(CCN(C)C)c(=O)n2c4c13"
  GI50: "0.0904 µM (active)"
- compound: "CC(=O)N(C)c1ccc2c(ccc[n+]2[O-])c1[N+](=O)[O-]"
  GI50: "> 100 µM (inactive)"
- compound: "CN(C)c1ccc(/C=N\\NC(=O)c2ccccc2Nc2ccccc2C(=O)N/N=C/c2ccc(N(C)C)cc2)cc1"
  GI50: "38.5 µM (inactive)"
- compound: "CCOC(=O)c1c[nH]c2cc3c(cc2c1=O)CCS3"
  GI50: "> 100 µM (inactive)"
- compound: "CN(C)Cc1nsc(N(C)C)n1"
  GI50: "> 100 µM (inactive)"
- compound: "COc1cc2c(cc1O)C(C)Cc1cc3c(cc1N(C)CC2)OCO3 (stereo not given)"
  GI50: "3.12 µM (inactive)"
- compound: "CC[N+]1(C)CCC(O)(c2ccc(Cl)cc2)C(C(=O)c2ccc(Cl)cc2)C1 (stereo not given)"
  GI50: "7.31 µM (inactive)"
- compound: "c1ccc2c(NCCCCCCNc3c4ccccc4nc4ccccc34)c3ccccc3nc2c1"
  GI50: "1.17 µM (inactive)"
- compound: "COc1cc2cc(OC)c3cc4c(cc3c2c(OC)c1OC)OCO4"
  GI50: "52.4 µM (inactive)"

---

# System: OVCAR-5
# assayText: NCI tumour cell line growth inhibition, 48 h
Active and inactive are the calls of the source. Cut-off read from the data, not from the text of the source: active = GI50 up to about 1.1 µM and inactive = higher.
Labels: y for active, n for inactive

- molecule: "O=P1(NCCCl)OCCCN1CCCl (stereo not given) [IFOSFAMIDE]"
  category: "n"
- molecule: "COc1c2ccccc2c(OC)c2nc(C)ccc12"
  category: "n"
- molecule: "COc1ccc(C2CC(c3ccc4ccccc4c3O)=NN2C(C)=O)cc1OC (stereo not given)"
  category: "n"
- molecule: "OC(c1ccc(F)cc1)C(F)(F)c1nc(-c2ccccc2)no1 (stereo not given)"
  category: "n"
- molecule: "CN(Cc1cc(Cl)cc(Cl)c1O)Cc1c(O)ccc2ccccc12"
  category: "n"
- molecule: "c1ccc2c(NCCCCCCNc3c4ccccc4nc4ccccc34)c3ccccc3nc2c1"
  category: "y"
- molecule: "CC(C)N1CC2CC(CN(C(=O)c3ccccc3)C2)C1.[O-][Cl+3]([O-])([O-])O"
  category: "n"
- molecule: "O=C(NO)c1ccc(C(=O)NO)cc1"
  category: "n"
- molecule: "CC1(C)CC(=O)C2=C(C1)NC(=S)C(C#N)C2c1ccccc1 (stereo not given)"
  category: "n"
- molecule: "COc1ccc2c(c1)C1=NCCN(CCO)c3ccc([N+](=O)[O-])c(c31)N2"
  category: "y"
- molecule: "Cn1c(-c2ccccc2)cc2c3ccsc3c3ccsc3c21"
  category: "n"
- molecule: "CC(C)CC(=O)O[C@H]1C(=O)O[C@@H]2C[C@H]3[C@H](C)C(=O)C(O[C@@H]4O[C@H](CO)[C@@H](O)[C@H](O)[C@H]4O)=C[C@]3(C)[C@H]3[C@@H](O)[C@H](O)[C@]4(C(=O)O)OC[C@]32[C@@H]14 [BRUCEOSIDE E]"
  category: "n"
- molecule: "CC1ON2CCCC2[C@H]1C(=O)N1C2CC3CCC2(CS1(=O)=O)C3(C)C (stereo not given in full)"
  category: "n"
- molecule: "O=C(CC(=O)c1cccc2ccccc12)C(=O)Nc1nccs1"
  category: "n"
- molecule: "O=S(=O)(c1ccccc1)n1c2cc3cccnc3nc2c2cccnc21"
  category: "n"
- molecule: "CC1(C)OC(=O)C(=C2CC(c3ccccc3)c3ccccc32)C(=O)O1 (stereo not given)"
  category: "n"
- molecule: "COc1cc(C(C)c2cc3c(cc2OCCNC(=O)COc2cc4c(cc2C(C)c2cc(OC)c(OC)c(OC)c2)OCO4)OCO3)cc(OC)c1OC (stereo not given)"
  category: "n"
- molecule: "COC(=O)CCC(=O)c1ccc2c(c1)CC1(C2)Cc2ccc3c(c2C1)CCCC3=O (stereo not given)"
  category: "n"
- molecule: "COc1ccc(C(=O)OC2C=COC(C)C2OC(=O)c2ccc(OC)cc2)cc1 (stereo not given)"
  category: "n"
- molecule: "CCOC(=O)N[C@H]1CCc2cc(OC)c(OC)c(OC)c2-c2ccc(SC)c(=O)cc21"
  category: "y"

---

# System: PC-3
# assayText: NCI tumour cell line growth inhibition, 48 h
Activity calls are given as the source filed them. Rule as the data show it: active = GI50 up to about 1.1 µM and inactive = higher. Peptide text beside a SMILES is read from it. * marks the point of attachment. Boc = CC(C)(C)OC(=O)*
Entries and their GI50

- molecule: "CC(Cl)CC(=O)OCC1CCCN2CCCCC12 (configuration not stated)"
  GI50: "> 100 µM (inactive)"
- molecule: "S=C=NCc1ccccc1 [BENZYL ISOTHIOCYANATE]"
  GI50: "4.1 µM (inactive)"
- molecule: "N#CC(C#N)=C(N)/C(C#N)=C/c1ccc(O)c(O)c1"
  GI50: "37.7 µM (inactive)"
- molecule: "CSC(CC(=O)O)C(=O)O (configuration not stated)"
  GI50: "> 100 µM (inactive)"
- molecule: "CCC1OC2C(CC=C(C)C)=C3OC(C)(O)C(C)(CC)C(=O)C3=C3OC(=O)C=C1C32 (configuration not stated)"
  GI50: "38.8 µM (inactive)"
- molecule: "COC(=O)C(Cc1c[nH]c2ccccc12)NC(=O)C(Cc1c[nH]c2ccccc12)NC(=O)C(Cc1c[nH]c2ccccc12)NC(=O)C(Cc1c[nH]c2ccccc12)NC(=O)C(Cc1c[nH]c2ccccc12)NC(=O)OC(C)(C)C (configuration not stated) (Boc-WWWWW-OMe; configuration not given here)"
  GI50: "> 100 µM (inactive)"
- molecule: "CC1C(=O)C(C)C(c2ccccc2)N(N=O)C1c1ccccc1 (configuration not stated)"
  GI50: "152 µM (inactive)"
- molecule: "Nc1ncnc2c1ncn2Cc1cccc(CCl)c1"
  GI50: "14.7 µM (inactive)"
- molecule: "O=S(=O)(c1ccccc1)n1c2cc3cccnc3nc2c2cccnc21"
  GI50: "97.9 µM (inactive)"
- molecule: "Cc1cn(C2CC(O)C(Cn3nncc3Cn3ncc(=O)[nH]c3=O)O2)c(=O)[nH]c1=O (configuration not stated)"
  GI50: "> 100 µM (inactive)"
- molecule: "NC(CCC(=O)O)(CCC(=O)O)CCC(=O)O"
  GI50: "> 100 µM (inactive)"
- molecule: "CCCn1cnc2c(SCc3ccc(Cl)cc3)nc(N)nc21"
  GI50: "21.2 µM (inactive)"

---

# Tested on: SF-295
# assayText: NCI tumour cell line growth inhibition, 48 h
Active and inactive are the calls of the source. Rule as the data show it: active = GI50 up to about 1.1 µM and inactive = higher.
Entries and their GI50
valueType: GI50

- molecule: "CCOC(=O)n1c2ccccc2c(=O)n1CCO"
  testValue: "> 100 µM (inactive)"
- molecule: "O=C1c2ccccc2C(=O)c2c(OCC3CO3)ccc(OCC3CO3)c21 (configuration not stated)"
  testValue: "2.28 µM (inactive)"
- molecule: "CC1(C)C2CCC1(C)C(N/C(Sc1ccccc1)=C(/C(Cl)=C(Cl)Cl)[N+](=O)[O-])C2 (configuration not stated)"
  testValue: "13.1 µM (inactive)"
- molecule: "COC(=O)C1N=CSCC1(C)O (configuration not stated)"
  testValue: "> 100 µM (inactive)"
- molecule: "CC(=O)NNc1nc(C)c(C(/C=C/c2ccc(Cl)cc2)=N/NC(=O)C[N+](C)(C)C)s1"
  testValue: "> 100 µM (inactive)"
- molecule: "S=C=NCc1ccccc1 [BENZYL ISOTHIOCYANATE]"
  testValue: "4.82 µM (inactive)"
- molecule: "Cc1cc(Nc2ccc(/N=N/c3ccc(O)c4ncccc34)cc2)nc(C)n1"
  testValue: "18.6 µM (inactive)"
- molecule: "CC(=O)N(C)c1ccc2c(ccc[n+]2[O-])c1[N+](=O)[O-]"
  testValue: "> 100 µM (inactive)"
- molecule: "CC(=O)CC(O)(C(F)(F)Cl)C(F)(Cl)Cl (configuration not stated)"
  testValue: "> 10 µM (inactive)"
- molecule: "Cc1ccccc1NC(=O)C(=O)Cc1nc2ccccc2s1"
  testValue: "> 100 µM (inactive)"
- molecule: "CC1=C(/C(C)=N/NC(=O)C(N)=O)Sc2ccccc2N1"
  testValue: "> 100 µM (inactive)"
- molecule: "N=c1oc2ccccc2cc1C(=O)Nc1nccs1"
  testValue: "35.6 µM (inactive)"
- molecule: "N#CCCC1C(C#N)C2(Cl)CC1(Cl)C(Cl)=C2Cl (configuration not stated)"
  testValue: "> 10 µM (inactive)"
- molecule: "CCC/C=C/C=C/C1CC(O)C(O)C(=O)C1CO (configuration not stated)"
  testValue: "> 100 µM (inactive)"
- molecule: "c1cc2c(cc1NC1=NCCO1)CCCC2"
  testValue: "4.02 µM (inactive)"
- molecule: "CCCCOC(=O)CN1C(=O)c2ccccc2C1=O"
  testValue: "> 100 µM (inactive)"
- molecule: "COc1ccc2nc3ccc(OC)cc3c(S(=O)(=O)Cc3ccc([N+](=O)[O-])cc3)c2c1"
  testValue: "61.5 µM (inactive)"
- molecule: "COc1ccc2c(c1)SC1=Nc3sc4cc(OC)ccc4[n+]3CN12"
  testValue: "31.3 µM (inactive)"
- molecule: "COc1c2ccccc2c(OC)c2nc(C)ccc12"
  testValue: "> 100 µM (inactive)"
- molecule: "COC(c1ccc(C(C)(C)C)cc1)(c1ccc(C(C)(C)C)cc1)c1cc(C(O)(c2cc(C(OC)(c3ccc(C(C)(C)C)cc3)c3ccc(C(C)(C)C)cc3)c(C)cc2C)c2cc(C(OC)(c3ccc(C(C)(C)C)cc3)c3ccc(C(C)(C)C)cc3)c(C)cc2C)c(C)cc1C"
  testValue: "> 100 µM (inactive)"
- molecule: "COc1cccc(C(NC2=NCCC=N2)c2cc3c(cc2O)OCO3)c1O (configuration not stated)"
  testValue: "42.2 µM (inactive)"
- molecule: "CC(C)(C)OC(=O)N1Cc2cc(O)ccc2C[C@H]1C(=O)O"
  testValue: "> 100 µM (inactive)"
